- experiment: Chemical stability assessed as half life at pH 7.0
- Format: physicochemical
- cond: buffer
property: half-life (h)
Give your result in h as a bare value.

Briefly, half-life measured for `CCOC(=O)[C@@H](N)CSNC(=O)N1c2ccccc2C=Cc2ccccc21` : 50.4

----------
- experiment: Chemical stability assessed as half life at pH 6.5
- Type: physicochemical
- cond: buffer
property: half-life (h)
Give your result in h as a bare value.

Briefly, half-life measured for `CCOC(=O)[C@@H](N)CSNC(=O)N1c2ccccc2C=Cc2ccccc21` : 81.6

FYI, the data here is from ChEMBL document CHEMBL1140688.
